# target-entity: T1, recombinant human CD73 extracellular domain (Trp27-Lys546) with C-terminal 6-histidine tag (human, UniProt P21589 27-547)
# T1 construct: also called hCD73; hCD73-cHis
# T1 sequence: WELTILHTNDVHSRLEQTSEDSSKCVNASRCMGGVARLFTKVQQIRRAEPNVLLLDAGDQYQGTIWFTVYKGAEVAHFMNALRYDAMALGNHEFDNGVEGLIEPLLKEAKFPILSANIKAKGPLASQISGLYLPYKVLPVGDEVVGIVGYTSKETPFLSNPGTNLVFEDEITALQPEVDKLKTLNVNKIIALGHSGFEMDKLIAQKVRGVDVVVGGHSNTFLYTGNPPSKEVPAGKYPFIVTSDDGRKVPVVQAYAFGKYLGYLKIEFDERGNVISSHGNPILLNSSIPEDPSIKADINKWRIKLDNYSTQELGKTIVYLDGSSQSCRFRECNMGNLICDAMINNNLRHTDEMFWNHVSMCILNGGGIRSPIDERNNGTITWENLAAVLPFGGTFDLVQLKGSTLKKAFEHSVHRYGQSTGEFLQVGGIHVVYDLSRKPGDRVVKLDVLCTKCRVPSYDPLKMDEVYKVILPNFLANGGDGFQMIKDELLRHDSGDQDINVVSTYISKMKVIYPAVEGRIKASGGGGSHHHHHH
# experimental-details: SPR, Biacore T200, antibody captured on Protein A chip, hCD73 ECD as analyte, 1:1 Langmuir
Response key: satisfied means kon >= 600000 M⁻¹ s⁻¹; not satisfied means kon < 600000 M⁻¹ s⁻¹.

1. humanized anti-CD73 antibody 22C12 VH-v9/Vk-v2 (antibody, V domains shown, Human IgG1 CH1-CH3 constant region and kappa constant region; also called hu22C12 VHv9 (printed hu22C12V11v9) + hu22C12 Vkv2) VH: QVQLVQSGAEVKKPGASVKVSCKASGYTFTGYWIQWVRQAPGQGLEWMGAIYPGDSDTRYTQKFQGRVTMTADTSISTAYMELSRLRSDDTAVYYCARGNWDDWDFDVWGQGTTVTVSS VL: DIQMTQSPSSLSASVGDRVTITCRASQDISNYLNWYQQKPGKAPKLLIHYTSRLHSGVPSRFSGSGSGTDYTLTISSLQPEDFATYYCQQGDTLPWTFGQGTKVEIK    satisfied
2. humanized anti-CD73 antibody 6G8 VH-v8/VK-v4 (antibody, V domains shown, Human IgG1 CH1-CH3 constant region and kappa constant region; also called hu6G8 VHv8 + hu6G8 VkV4) VH: QVTLRESGPALVKPTQTLTLTCTFSGFSLSTSGMGVGWIRQPPGKALEWLAHIWWDEDKYYNPSLKSRLTISKDTSKNQVVLTMTNMDPVDTATYYCARRERWAWFAYWGQGTLVTVSS VL: EIVMTQSPATLSVSPGERATLSCRASQNVFTNVAWYQQKPGQAPRVLIYSASYRYSGIPARFSGSGSGTEFTLTISSLQSEDFAVYFCQQYNSYPTFGQGTKLEIK    not satisfied
3. humanized anti-CD73 antibody 6G8 VH-v1/VK-v1 (antibody, V domains shown, Human IgG1 CH1-CH3 constant region and kappa constant region; also called hu6G8 VHv1 + hu6G8 Vkv1) VH: QVTLRESGPALVKPTQTLTLTCTFSGFSLSTSGMGVGWIRQPPGKALEWLAHIWWDDDKYYNPSLKSRLTISKDTSKNQVVLTMTNMDPVDTATYYCARRERWAWFAYWGQGTLVTVSS VL: DIQMTQSPSSLSASVGDRVTITCRASQNVFTNVAWYQQKPGKAPKVLIYSASYRYSGVPSRFSGSGSGTDFTLTISSLQPEDFATYFCQQYNSYPTFGQGTKLEIK    not satisfied
4. humanized anti-CD73 antibody 22C12 VH-v10/VL-v2 (antibody, V domains shown, Human IgG1 CH1-CH3 constant region and kappa constant region; also called hu22C12 VHv10 (printed hu22C12 Vilv10) + hu22C12 Vkv2) VH: QVQLVQSGAEVKKPGASVKVSCKASGYTFTGYWIQWVRQAPGQGLEWMGAIYPGDEDTRYTQKFQGRVTMTADTSISTAYMELSRLRSDDTAVYYCARGNWDDWDFDVWGQGTTVTVSS VL: DIQMTQSPSSLSASVGDRVTITCRASQDISNYLNWYQQKPGKAPKLLIHYTSRLHSGVPSRFSGSGSGTDYTLTISSLQPEDFATYYCQQGDTLPWTFGQGTKVEIK    satisfied
5. humanized anti-CD73 antibody 22C12 VH-v10/VL-v3 (antibody, V domains shown, Human IgG1 CH1-CH3 constant region and kappa constant region; also called hu22C12 VHv10 (printed hu22C12 Vilv10) + hu22C12 Vkv3) VH: QVQLVQSGAEVKKPGASVKVSCKASGYTFTGYWIQWVRQAPGQGLEWMGAIYPGDEDTRYTQKFQGRVTMTADTSISTAYMELSRLRSDDTAVYYCARGNWDDWDFDVWGQGTTVTVSS VL: DIQMTQSPSSLSASVGDRVTITCRASQDISNYLNWYQQKPGKAPKLLIHYTSRLHSGVPSRFSGSGSGTDFTLTISSLQPEDFATYYCQQGDTLPWTFGQGTKVEIK    satisfied
